// data source = patent US20030068675

system-name: T1, ZFP SBS#1381 (synthetic)
T1 chain: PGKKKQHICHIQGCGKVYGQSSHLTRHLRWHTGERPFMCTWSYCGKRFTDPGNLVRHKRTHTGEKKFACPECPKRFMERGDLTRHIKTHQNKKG
run-description: EMSA
condition-context: tags: MBP fusion
test-readout: Kd (pM)
Output spec: scalar in pM, unitless text.

[Q] Annotate the binder GCCGACGGT (dsDNA) DNA 1: GCCGACGGT DNA 2: ACCGTCGGC with its measured Kd.
[A] 230
